- method.description: chemical genetic growth profiling, strain panel (AID 1159580);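 further: tested at 20 µM; growth read once vehicle control cultures reached saturation at 30 °C; 1 = growth at the plate median or of vehicle wells; lower values mean less growth of the strain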
- condition.details: S. cerevisiae deletion strains, growth OD, locus YBL105C, strain PKC1, active compounds read low
Hit rate of the full screen: of about 5,500 compounds, about 2,000 (36%) were called active. Another 18% or so got no clear call; they are omitted. The list shows a part of the results.
Parameter: normalized growth. Scope: all listed entries.
Reply: number alone, nothing else.

O=S(=O)(Nc1ccccc1Sc1c(Cl)cncc1Cl)c1ccc(Cl)cc1 | 0.987
N#Cc1nccnc1N1CCN(C(=O)Nc2cc(Cl)cc(Cl)c2)CC1 | 0.972
O=C1/C(=C/c2c[nH]c3ccccc23)CSc2ccccc21 | 0.975

Q: normalized growth for Cc1ccc(Sc2ncccc2NS(=O)(=O)c2ccc(Cl)cc2)cc1 ?
A: 0.924

Q: What value of normalized growth has been recorded for this entry: O=C1Nc2ccccc2/C1=C\c1cccc2ccccc12
A: 0.955

Q: Give the measured normalized growth of COc1ccccc1N1CCN(C(=O)C(C)c2ccc(CC(C)C)cc2)CC1 (stereo unspecified) .
A: 0.983

---

- method.description: chemical genetic growth profiling, strain panel (AID 1159580);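 further: tested at 20 µM; growth read once vehicle control cultures reached saturation at 30 °C; 1 = growth at the plate median or of vehicle wells; lower values mean less growth of the strain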
- condition.details: S. cerevisiae deletion strains, growth OD, locus YML124C, strain tub3, active compounds read low
Screen size: about 5,500 compounds; about 2,000 (36%) were called active. Not shown: some 18% with an inconclusive outcome. The list shows a part of the results.
reported.endpoint: normalized growth
Would you mind answering with just the numeric figure?

Reference set, count: 2
C[N+]1(C)C[C@H](O)[C@H](C(=O)[O-])C1 | 0.997
CC(=O)OC1CC[C@@]2(C)C(CCC3C2CC[C@]2(C)C(C4=CC(=O)OC4)C(OC(C)=O)CC32O)C1 (stereo partly specified) | 1.01

Q: What does the data say about its normalized growth? Entry: CN(C)C(=O)C(CCN1CCC(O)(c2ccc(Cl)cc2)CC1)(c1ccccc1)c1ccccc1
A: 1.01

Q: Which normalized growth reading was recorded for the compound CCOC(=O)C1=C(O)C(=O)N(Cc2ccccc2)C1 ?
A: 1.01

Q: Which normalized growth value is on record for O=C(O)c1ccccc1O ?
A: 1.01

---

Each entry below lists one item and its recorded normalized growth value.
- method.description: chemical genetic growth profiling, strain panel (AID 1159580);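 further: tested at 20 µM; growth read once vehicle control cultures reached saturation at 30 °C; 1 = growth at the plate median or of vehicle wells; lower values mean less growth of the strain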
- condition.details: S. cerevisiae deletion strains, growth OD, locus YJL168C, strain set2, active compounds read low
About 2,000 (36%) of roughly 5,500 compounds were called active. Roughly 18% stayed inconclusive and do not appear here. The list shows a part of the results.
Hey, just send me the number, nothing else.

These solved cases illustrate the format of a correct answer.
NC[C@H]1O[C@H](OC2[C@@H](N)C[C@@H](N)[C@H](O[C@H]3O[C@H](CO)[C@@H](O)[C@H](N)[C@H]3O)[C@H]2O)[C@H](O)[C@@H](O)[C@@H]1O (some centres undefined) | 0.978
NC(=O)c1ccccc1O | 1.01
NC(=O)c1ccc([N+](=O)[O-])cc1Cl | 0.982
CC1(C)C(O)CC(=O)C2(C)C1CC(O)C1(C)C2CCC2(C)C(c3ccoc3)OC(=O)C3OC321 (centres undefined) | 1.01
C[C@H]1[C@H](C)CC[C@]2(C(=O)O)CC[C@]3(C)C(=CCC4[C@@]5(C)C[C@@H](O)[C@H](O)[C@@](C)(CO)C5[C@H](O)C[C@]43C)[C@H]12 (some centres undefined) | 0.982

Q: Which normalized growth reading was recorded for the compound NCCCCN ?
A: 1.01

Q: Given O=C(O)c1ccccc1O , state its recorded normalized growth.
A: 1.01

Q: // normalized growth lookup, key: NCC(O)CC(=O)O (centres undefined)
A: 0.997

Q: # normalized growth lookup, item CC(C)=CC1C(CO)C1(C)C (centres undefined)
A: 0.997

Q: // returns reported normalized growth for input O=c1c(O)cccc2c(C3Oc4cc(O)cc(O)c4CC3O)cc(O)c(O)c12 (centres undefined)
A: 0.913

Q: // normalized growth lookup, key: C[C@@H]1CC[C@@]23CCC4(C)[C@@](C=CC5[C@@]6(C)CCC(=O)C(C)(C)C6CC[C@]54C)(OC2=O)C3[C@H]1C (some centres undefined)
A: 1.01

Q: Which value of normalized growth has been reported for CC(=O)O[C@@H]1CC2C(C)(C)CCC[C@]2(C)C2CC[C@]3(C)C(=CC(=O)O[C@H]3c3ccoc3)[C@@]21C (some centres undefined) in the records?
A: 0.994

Values were extracted from PubChem BioAssay AID1159580.
